Each item that follows carries a reported PD50.
System: F2002 cell line
Test: The compound was tested for inhibitory activity against human cytomegalovirus (HCMV) (WFl strain) in plaque reduction assay in flow 2002 cells
Format: functional

Solved cases below.
{"columns": ["COMPOUND", "PD50"],
 "data": [
  ["Nc1nc(=O)n(C2CSC3(COP(=O)(O)OC3)O2)cc1F (stereo not drawn)", ">100 µg/mL"],
  ["Cc1cn(C2CSC3(COP(=O)(O)OC3)O2)c(=O)[nH]c1=O (stereo not drawn)", ">100 µg/mL"]
]}

Please find the next compound below.
State the recorded PD50 for this entry: N.Nc1nc2c(ncn2C2CSC3(COP(=O)(O)OC3)O2)c(=O)[nH]1 (stereo not drawn)
>100 µg/mL
